Assay: Kinetic solubility of the compound
Type: physicochemical
Settings: read-out: Kinetic_solubility
Measured Attribute: solubility kinetic (µM)
Numbers only; they are read as µM.

Recorded solubility kinetic (compound "CC(C)c1nc2ccccc2n1-c1nc(N2CCOCC2)c2nc(CN3CCC(C(C)(C)O)CC3)n(C)c2n1" ): 32

* * *

Consider the following molecules and their measured Ki readings.
Molecular target: Phosphatidylinositol 4,5-bisphosphate 3-kinase catalytic subunit alpha isoform (Homo sapiens, UniProt P42336)
Sequence (P42336 whole entry, canonical isoform): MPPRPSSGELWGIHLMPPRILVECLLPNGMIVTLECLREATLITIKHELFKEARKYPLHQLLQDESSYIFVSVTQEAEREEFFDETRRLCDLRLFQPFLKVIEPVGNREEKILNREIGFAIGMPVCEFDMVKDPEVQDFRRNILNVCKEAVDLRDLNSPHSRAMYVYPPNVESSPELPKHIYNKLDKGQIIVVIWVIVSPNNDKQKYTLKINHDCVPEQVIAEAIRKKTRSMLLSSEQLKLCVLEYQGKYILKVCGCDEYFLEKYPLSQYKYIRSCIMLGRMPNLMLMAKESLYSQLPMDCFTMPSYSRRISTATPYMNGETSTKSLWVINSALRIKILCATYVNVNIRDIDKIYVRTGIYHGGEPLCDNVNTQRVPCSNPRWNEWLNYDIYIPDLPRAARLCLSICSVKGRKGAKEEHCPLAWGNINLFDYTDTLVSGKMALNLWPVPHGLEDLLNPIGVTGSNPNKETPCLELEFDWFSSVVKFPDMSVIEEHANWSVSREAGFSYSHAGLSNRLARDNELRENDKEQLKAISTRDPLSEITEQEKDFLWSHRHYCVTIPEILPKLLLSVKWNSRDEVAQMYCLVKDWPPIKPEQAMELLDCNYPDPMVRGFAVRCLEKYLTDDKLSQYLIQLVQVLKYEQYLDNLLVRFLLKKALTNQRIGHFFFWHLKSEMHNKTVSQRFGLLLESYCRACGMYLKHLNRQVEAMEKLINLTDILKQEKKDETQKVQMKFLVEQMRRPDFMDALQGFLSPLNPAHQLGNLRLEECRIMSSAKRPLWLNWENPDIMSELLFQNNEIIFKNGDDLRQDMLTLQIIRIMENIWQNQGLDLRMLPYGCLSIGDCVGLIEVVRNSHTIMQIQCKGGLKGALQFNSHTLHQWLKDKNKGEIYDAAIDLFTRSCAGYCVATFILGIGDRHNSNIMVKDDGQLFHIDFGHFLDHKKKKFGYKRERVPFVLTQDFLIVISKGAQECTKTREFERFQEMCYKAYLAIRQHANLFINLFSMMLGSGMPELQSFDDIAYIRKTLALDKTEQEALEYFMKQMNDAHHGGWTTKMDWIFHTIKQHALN
Assay: Inhibition of PI3Kalpha (unknown origin) assessed as formation of PIP3 by competitive fluorescence polarization assay
Conditions: read-out: Ki(app)
Numbers only; they are read as µM.

CCc1nc2ccccc2n1-c1nc(N2CCOCC2)c2nc(C(=O)N3CCN(C(C)(C)C(N)=O)CC3)n(C)c2n1 : 0.236

Recorded Ki (molecule "CCc1nc2ccccc2n1-c1nc(N2CCOCC2)c2sc(C(=O)N3CCN(C(C)(C)C(N)=O)CC3)c(C)c2n1" ): 0.157
